B1: library; a variant is named by its letters at N, in order (parent)
chain: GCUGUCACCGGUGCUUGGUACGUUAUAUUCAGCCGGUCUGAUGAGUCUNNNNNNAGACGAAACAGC

- Variants of: B1
- run description: normalized RNA/DNA level with ligand (relative to sTRSVctl = 100) (log10 (% of sTRSVctl)); HEK293T overexpressing SLC46A1; ligand concentration (+) RNA-Seq: 6 mM; higher = less ribozyme self-cleavage, higher mRNA level
- condition details: with (6R,S)-folinic acid; ligand present: yes
Listed here: items and their measured normalized RNA/DNA level with ligand (log10).
observable: normalized RNA/DNA level with ligand (log10)

GCUGUCACCGGUGCUUGGUACGUUAUAUUCAGCCGGUCUGAUGAGUCUGCUCGAAGACGAAACAGC [GCUCGA]    2.02
GCUGUCACCGGUGCUUGGUACGUUAUAUUCAGCCGGUCUGAUGAGUCUAUCAUGAGACGAAACAGC [AUCAUG]    2.01
GCUGUCACCGGUGCUUGGUACGUUAUAUUCAGCCGGUCUGAUGAGUCUCGUCUCAGACGAAACAGC [CGUCUC]    2
GCUGUCACCGGUGCUUGGUACGUUAUAUUCAGCCGGUCUGAUGAGUCUGAAGCGAGACGAAACAGC [GAAGCG]    2.02
GCUGUCACCGGUGCUUGGUACGUUAUAUUCAGCCGGUCUGAUGAGUCUUCCAGUAGACGAAACAGC [UCCAGU]    1.99
GCUGUCACCGGUGCUUGGUACGUUAUAUUCAGCCGGUCUGAUGAGUCUCGCAAUAGACGAAACAGC [CGCAAU]    1.97
GCUGUCACCGGUGCUUGGUACGUUAUAUUCAGCCGGUCUGAUGAGUCUGAUUCAAGACGAAACAGC [GAUUCA]    2.01
GCUGUCACCGGUGCUUGGUACGUUAUAUUCAGCCGGUCUGAUGAGUCUCCGCGUAGACGAAACAGC [CCGCGU]    2.05
GCUGUCACCGGUGCUUGGUACGUUAUAUUCAGCCGGUCUGAUGAGUCUUGGUGGAGACGAAACAGC [UGGUGG]    1.96
GCUGUCACCGGUGCUUGGUACGUUAUAUUCAGCCGGUCUGAUGAGUCUACCAUCAGACGAAACAGC [ACCAUC]    2.02
GCUGUCACCGGUGCUUGGUACGUUAUAUUCAGCCGGUCUGAUGAGUCUGUUAGCAGACGAAACAGC [GUUAGC]    1.99
GCUGUCACCGGUGCUUGGUACGUUAUAUUCAGCCGGUCUGAUGAGUCUCGGGUGAGACGAAACAGC [CGGGUG]    2.01
GCUGUCACCGGUGCUUGGUACGUUAUAUUCAGCCGGUCUGAUGAGUCUACAGAGAGACGAAACAGC [ACAGAG]    1.94
GCUGUCACCGGUGCUUGGUACGUUAUAUUCAGCCGGUCUGAUGAGUCUCAUAAUAGACGAAACAGC [CAUAAU]    2
GCUGUCACCGGUGCUUGGUACGUUAUAUUCAGCCGGUCUGAUGAGUCUUCAGGAAGACGAAACAGC [UCAGGA]    1.98
GCUGUCACCGGUGCUUGGUACGUUAUAUUCAGCCGGUCUGAUGAGUCUGCCCGUAGACGAAACAGC [GCCCGU]    2.01
GCUGUCACCGGUGCUUGGUACGUUAUAUUCAGCCGGUCUGAUGAGUCUUCAUCGAGACGAAACAGC [UCAUCG]    2.01
GCUGUCACCGGUGCUUGGUACGUUAUAUUCAGCCGGUCUGAUGAGUCUCAAUGCAGACGAAACAGC [CAAUGC]    2.02
GCUGUCACCGGUGCUUGGUACGUUAUAUUCAGCCGGUCUGAUGAGUCUACAACUAGACGAAACAGC [ACAACU]    2.03
GCUGUCACCGGUGCUUGGUACGUUAUAUUCAGCCGGUCUGAUGAGUCUAGUAGGAGACGAAACAGC [AGUAGG]    2.02
GCUGUCACCGGUGCUUGGUACGUUAUAUUCAGCCGGUCUGAUGAGUCUGGGAAAAGACGAAACAGC [GGGAAA]    2.02
GCUGUCACCGGUGCUUGGUACGUUAUAUUCAGCCGGUCUGAUGAGUCUAAUUCUAGACGAAACAGC [AAUUCU]    2.03
GCUGUCACCGGUGCUUGGUACGUUAUAUUCAGCCGGUCUGAUGAGUCUGACGCUAGACGAAACAGC [GACGCU]    2.03
GCUGUCACCGGUGCUUGGUACGUUAUAUUCAGCCGGUCUGAUGAGUCUAGCUCAAGACGAAACAGC [AGCUCA]    2.01
GCUGUCACCGGUGCUUGGUACGUUAUAUUCAGCCGGUCUGAUGAGUCUUCCGCUAGACGAAACAGC [UCCGCU]    2.04
GCUGUCACCGGUGCUUGGUACGUUAUAUUCAGCCGGUCUGAUGAGUCUCACAGUAGACGAAACAGC [CACAGU]    2
GCUGUCACCGGUGCUUGGUACGUUAUAUUCAGCCGGUCUGAUGAGUCUCUUAGAAGACGAAACAGC [CUUAGA]    2.04
GCUGUCACCGGUGCUUGGUACGUUAUAUUCAGCCGGUCUGAUGAGUCUUAUACGAGACGAAACAGC [UAUACG]    1.96
GCUGUCACCGGUGCUUGGUACGUUAUAUUCAGCCGGUCUGAUGAGUCUAUCCUAAGACGAAACAGC [AUCCUA]    2.01
